Documented Ki across a set of compounds
study_target: UniProtKB P61169
Sequence (P61169 whole entry): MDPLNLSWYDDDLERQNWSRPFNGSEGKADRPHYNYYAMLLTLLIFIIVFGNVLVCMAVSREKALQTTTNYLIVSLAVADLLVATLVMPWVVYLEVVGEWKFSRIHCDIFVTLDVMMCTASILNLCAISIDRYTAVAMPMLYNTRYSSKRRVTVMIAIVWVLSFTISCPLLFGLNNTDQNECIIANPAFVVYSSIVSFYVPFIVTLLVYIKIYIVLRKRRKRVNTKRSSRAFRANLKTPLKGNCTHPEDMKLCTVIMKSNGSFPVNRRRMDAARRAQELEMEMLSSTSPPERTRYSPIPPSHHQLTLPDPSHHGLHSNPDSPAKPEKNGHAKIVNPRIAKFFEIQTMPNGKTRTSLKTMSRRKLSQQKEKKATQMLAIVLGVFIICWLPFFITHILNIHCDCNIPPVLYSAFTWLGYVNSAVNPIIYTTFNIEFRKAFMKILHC
method_summary: Displacement of [3H]Spiperone from Sprague-Dawley rat dopamine D2-like receptor after 90 mins

{"structure_string": "CCCN(CC[C@]1(O)CC[C@@H](NC(=O)c2ccc3ccccc3c2)CC1)[C@H]1CCc2nc(N)sc2C1", "study_target": "UniProtKB P61169", "display_unit": "nM", "Ki": 1630}
{"structure_string": "CCCN(CC[C@H]1C[C@@H](NC(=O)c2ccc3ccccc3c2)C1)[C@H]1CCc2nc(N)sc2C1", "study_target": "UniProtKB P61169", "display_unit": "nM", "Ki": 564}
{"structure_string": "CCCN(CC[C@]1(O)CC[C@H](NC(=O)c2ccc3ccccc3c2)CC1)[C@H]1CCc2nc(N)sc2C1", "study_target": "UniProtKB P61169", "display_unit": "nM", "Ki": 3550}
{"structure_string": "CCCN(CC[C@H]1C[C@H](NC(=O)c2ccc3ccccc3c2)C1)[C@H]1CCc2nc(N)sc2C1", "study_target": "UniProtKB P61169", "display_unit": "nM", "Ki": 584}

Origin of measurements: ChEMBL document CHEMBL2203147
